assay: clinical; details: human, in vivo, 75 mg/m2, Tmax
recorded endpoint: Tmax (h)
Reply with just the number (in h).

Problem: Need Tmax, item `CN1CC[C@H](c2c(O)cc(O)c3c(=O)cc(-c4ccccc4Cl)oc23)[C@H](O)C1`
Solution: 0

----------
Assay: clinical
Settings: human, in vivo, 75 mg/m2, AUC(0-27)
Description: Plasma PK analyses for alvocidib and known metabolites, if any, and dose proportionality will be determined on Days 8 and 9 (for patients receiving alvocidib following DEC) or Days 10 and 11 (for patients receiving alvocidib following AZA) of Cycle 1 in all patients enrolled in the study, according to Table 5 or Table 6: […]
recorded endpoint: AUC(0-t) (ng·h/mL)
Reply with just the number (in ng·h/mL).

Problem: Need AUC(0-t), item `CN1CC[C@H](c2c(O)cc(O)c3c(=O)cc(-c4ccccc4Cl)oc23)[C@H](O)C1`
Solution: 3410

----------
experiment: clinical; settings: human, in vivo, 75 mg/m2, Cmax
recorded endpoint: Cmax (ng/mL)
Reply with just the number (in ng/mL).

Problem: Need Cmax, item `CN1CC[C@H](c2c(O)cc(O)c3c(=O)cc(-c4ccccc4Cl)oc23)[C@H](O)C1`
Solution: 868

----------
assay: clinical; details: human, in vivo, 75 mg/m2, T1/2
recorded endpoint: half-life (h)
Reply with just the number (in h).

Problem: Need half-life, item `CN1CC[C@H](c2c(O)cc(O)c3c(=O)cc(-c4ccccc4Cl)oc23)[C@H](O)C1`
Solution: 8.23

----------
assay: clinical; details: human, in vivo, 75 mg/m2, T1/2, Mean
recorded endpoint: half-life (h)
Reply with just the number (in h).

Problem: Need half-life, item `CN1CC[C@H](c2c(O)cc(O)c3c(=O)cc(-c4ccccc4Cl)oc23)[C@H](O)C1`
Solution: 8

----------
assay: clinical; conditions: human, in vivo, 75 mg/m2, AUC(0-27), Mean
recorded endpoint: AUC(0-t) (ng·h/mL)
Reply with just the number (in ng·h/mL).

Problem: Need AUC(0-t), item CN1CC[C@H](c2c(O)cc(O)c3c(=O)cc(-c4ccccc4Cl)oc23)[C@H](O)C1 [alvocidib]
Solution: 4080

----------
assay: clinical; conditions: human, in vivo, 75 mg/m2, Tmax, Mean
recorded endpoint: Tmax (h)
Reply with just the number (in h).

Problem: Need Tmax, item `CN1CC[C@H](c2c(O)cc(O)c3c(=O)cc(-c4ccccc4Cl)oc23)[C@H](O)C1`
Solution: 0
